Assay: Cytotoxicity activity against human HepG2 cells assessed by CellTiter-Glo luminescent cell viability assay.
Type: toxicity, cell-based
Design: assay stage confirmatory assay, source tissue liver
Conditions: HepG2 cells, read-out: IC50 relative
The source made the active and inactive calls. The rule behind the calls is not given here.
// one of Yes (active), No (inactive), no free text

The examples below pair each entry with its known result.
>>> label_value("O=C(Nc1ccc2c(c1)S(=O)(=O)C=C2)c1ncoc1-c1ccco1")
"No"
>>> label_value("Cc1cc(NC(=O)c2cccc(NC(=O)/C=C/CN(C)C)c2)ccc1Nc1nccc(-c2cccnc2)n1")
"Yes"
>>> label_value("COc1ccsc1C(=O)Nc1ncc(Cl)s1")
"Yes"

Attention now shifts to the item below.
// return assay outcome for "Cc1cccc(N2CCN(CC(=O)c3c(N)n(CC(C)C)c(=O)n(C)c3=O)CC2)c1C"
Yes
